# TGT: T1, human C5 (human, UniProt P01031 19-1676)
# T1 construct: Bought human C5 (EMD #204888, said elsewhere to be purified from plasma); also called hC5; complement component 5
# RUN DESCRIPTION: SPR, mAb captured via anti-hFc, dissociation at pH7.4 vs pH6.0, 25C
Task for the reader: assign each of the following binders its reported t1/2 Ratio pH7.4/pH6.0.
Keep the answer to the number alone.

Entry H4H12166P4 (antibody, human IgG4, V domains shown, Histidine-mutated CDR variant of H4H12166P; human IgG4 Fc with S108P) VH: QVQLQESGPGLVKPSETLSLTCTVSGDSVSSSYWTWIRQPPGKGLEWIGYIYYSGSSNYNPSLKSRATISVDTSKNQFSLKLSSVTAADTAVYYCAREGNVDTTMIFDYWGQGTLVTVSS VL: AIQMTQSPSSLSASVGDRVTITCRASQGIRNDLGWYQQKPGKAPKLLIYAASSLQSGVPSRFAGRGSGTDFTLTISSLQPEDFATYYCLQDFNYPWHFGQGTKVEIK — recorded t1/2 Ratio pH7.4/pH6.0 = 7.8

Reported t1/2 Ratio pH7.4/pH6.0 of H4H12166P6 (antibody, human IgG4, V domains shown, Histidine-mutated CDR variant of H4H12166P; human IgG4 Fc with S108P) VH: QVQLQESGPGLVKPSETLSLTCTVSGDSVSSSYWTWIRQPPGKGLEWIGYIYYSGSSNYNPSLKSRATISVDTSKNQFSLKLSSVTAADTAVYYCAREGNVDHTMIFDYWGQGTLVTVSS VL: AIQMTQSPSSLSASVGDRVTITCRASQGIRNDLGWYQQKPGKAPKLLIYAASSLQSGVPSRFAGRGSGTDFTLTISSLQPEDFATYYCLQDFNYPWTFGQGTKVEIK : 7.8

Recorded t1/2 Ratio pH7.4/pH6.0 (binder H4H12168P (antibody, human IgG4, V domains shown, Human IgG4 Fc with S108P hinge mutation (H4H)) VH: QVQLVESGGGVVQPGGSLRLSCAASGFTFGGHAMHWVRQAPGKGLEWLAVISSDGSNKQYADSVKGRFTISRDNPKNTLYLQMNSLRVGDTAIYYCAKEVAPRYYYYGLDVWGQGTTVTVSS VL: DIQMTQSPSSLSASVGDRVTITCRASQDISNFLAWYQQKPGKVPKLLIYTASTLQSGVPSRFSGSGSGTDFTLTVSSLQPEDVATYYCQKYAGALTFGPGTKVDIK ): 1.5

H4H12164P (antibody, human IgG4, V domains shown, Human IgG4 Fc with S108P hinge mutation (H4H)) VH: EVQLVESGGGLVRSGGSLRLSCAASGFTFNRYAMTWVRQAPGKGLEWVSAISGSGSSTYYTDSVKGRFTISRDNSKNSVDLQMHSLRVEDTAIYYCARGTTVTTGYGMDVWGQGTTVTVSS VL: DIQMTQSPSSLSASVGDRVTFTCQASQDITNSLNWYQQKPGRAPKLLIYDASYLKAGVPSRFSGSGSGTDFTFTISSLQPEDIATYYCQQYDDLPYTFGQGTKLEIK has a reported t1/2 Ratio pH7.4/pH6.0 of 0.3

Note to self: t1/2 Ratio pH7.4/pH6.0 recorded for H4H12166P8 (antibody, human IgG4, V domains shown, Histidine-mutated CDR variant of H4H12166P; human IgG4 Fc with S108P) VH: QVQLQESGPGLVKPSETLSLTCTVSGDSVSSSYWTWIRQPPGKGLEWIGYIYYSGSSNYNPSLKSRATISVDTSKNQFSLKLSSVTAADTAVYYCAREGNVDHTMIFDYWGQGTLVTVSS VL: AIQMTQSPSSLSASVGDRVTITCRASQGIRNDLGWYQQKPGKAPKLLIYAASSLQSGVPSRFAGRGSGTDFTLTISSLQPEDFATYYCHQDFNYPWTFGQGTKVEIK was 47

// t1/2 Ratio pH7.4/pH6.0 lookup, binder = H4H12167P (antibody, human IgG4, V domains shown, Human IgG4 Fc with S108P hinge mutation (H4H)) VH: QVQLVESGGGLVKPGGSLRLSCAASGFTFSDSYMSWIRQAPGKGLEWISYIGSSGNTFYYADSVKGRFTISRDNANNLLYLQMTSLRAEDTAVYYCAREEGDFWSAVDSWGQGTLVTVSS VL: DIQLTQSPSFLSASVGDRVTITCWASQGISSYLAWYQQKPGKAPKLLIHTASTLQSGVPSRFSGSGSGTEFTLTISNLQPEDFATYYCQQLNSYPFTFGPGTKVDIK , result: 0.6

Just so you know, measured t1/2 Ratio pH7.4/pH6.0 for H4H12166P5 (antibody, human IgG4, V domains shown, Histidine-mutated CDR variant of H4H12166P; human IgG4 Fc with S108P) VH: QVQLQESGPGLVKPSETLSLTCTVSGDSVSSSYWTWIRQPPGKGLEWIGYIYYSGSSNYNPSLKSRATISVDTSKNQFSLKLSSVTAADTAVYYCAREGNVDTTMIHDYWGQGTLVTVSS VL: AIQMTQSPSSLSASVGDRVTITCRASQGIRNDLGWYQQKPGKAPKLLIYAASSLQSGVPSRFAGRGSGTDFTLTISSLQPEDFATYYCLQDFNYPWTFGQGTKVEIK came out at 8.3

# t1/2 Ratio pH7.4/pH6.0 (binder: H4H11683N (antibody, V domains shown, also called H2M11683N) VH: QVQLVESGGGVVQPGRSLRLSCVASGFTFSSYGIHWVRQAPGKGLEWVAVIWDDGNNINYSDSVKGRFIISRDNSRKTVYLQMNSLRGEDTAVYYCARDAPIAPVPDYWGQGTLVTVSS VL: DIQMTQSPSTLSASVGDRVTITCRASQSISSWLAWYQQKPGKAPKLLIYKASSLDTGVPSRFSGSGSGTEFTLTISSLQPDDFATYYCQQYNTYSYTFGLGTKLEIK ) is 2
